- measurement.notes: total protein half-life in vivo (active degradation + dilution); higher = more stable protein
- measurement.parameters: wild type E. coli NCM3722; growth: C-lim chemostat; doubling time 12 h
quantity.measured: total protein half-life in vivo

Req: Can you look up the measured total protein half-life in vivo of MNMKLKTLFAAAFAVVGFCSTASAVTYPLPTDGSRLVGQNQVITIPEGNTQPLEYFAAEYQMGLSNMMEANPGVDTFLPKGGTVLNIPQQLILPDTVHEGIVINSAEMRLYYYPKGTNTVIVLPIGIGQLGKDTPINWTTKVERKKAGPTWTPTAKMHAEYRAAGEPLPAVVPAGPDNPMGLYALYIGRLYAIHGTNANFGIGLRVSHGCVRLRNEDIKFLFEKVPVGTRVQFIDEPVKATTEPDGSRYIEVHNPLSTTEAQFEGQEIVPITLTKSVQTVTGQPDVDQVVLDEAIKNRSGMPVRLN [P0AAX8] for me?
Resp: 11.6 h

Req: Then MTDYAISKKSKRSLWIPILVFITLAACASAGYSYWHSHQVAADDKAQQRVVPSPVFYALDTFTVNLGDADRVLYIGITLRLKDEATRSRLSEYLPEVRSRLLLLFSRQDAAVLATEEGKKNLIAEIKTTLSTPLVAGQPKQDVTDVLYTAFILR [P0ABX8] ?
Resp: 3 h

Req: Note, next up: `MATAKKITIHDVALAAGVSVSTVSLVLSGKGRISTATGERVNAAIEELGFVRNRQASALRGGQSGVIGLIVRDLSAPFYAELTAGLTEALEAQGRMVFLLHGGKDGEQLAQRFSLLLNQGVDGVVIAGAAGSSDDLRRMAEEKAIPVIFASRASYLDDVDTVRPDNMQAAQLLTEHLIRNGHQRIAWLGGQSSSLTRAERVGGYCATLLKFGLPFHSDWVLECTSSQKQAAEAITALLRHNPTISAVVCYNETIAMGAWFGLLKAGRQSGESGVDRYFEQQVSLAAFTDATPTTLDDIPVTWASTPARELGITLADRMMQKITHEETHSRNLIIPARLIAAK`
Resp: 8.76 h

Values compiled from the supplement of paper PMC11246515.
